# SUBJECT_OF_TEST: Human immunodeficiency virus type 1 protease (Human immunodeficiency virus 1, UniProt Q72874)
# PROTOCOL: Inhibitory concentration against recombinant HIV-1 111B protease expressed from Escherichia coli was tested by HPLC based assay

CHEMICAL_STRUCTURE	IC50 (nM)
CC(C)[C@H](NC(=O)c1ccc2ccccc2n1)C(=O)N[C@@H](Cc1ccccc1)[C@H](O)CN1CC[C@@H](OCc2ccncc2)C[C@H]1C(=O)NC(C)(C)C	4

====

# SUBJECT_OF_TEST: Human immunodeficiency virus type 1 protease (Human immunodeficiency virus 1, UniProt Q72874)
# PROTOCOL: Inhibitory concentration against recombinant HIV-1 protease expressed in Escherichia coli was tested by HPLC based assay
pIC50: −log10 of the molar value.
Assign class by pIC50: not lower than 8 means 1; lower than 8 means -1.

COMPOUND	CATEGORY_LABEL
CC(C)[C@H](NC(=O)OCc1ccccc1)C(=O)N[C@@H](Cc1ccccc1)[C@H](O)CNC(=O)[C@@H](CC(=O)NC(C)(C)C)C(C)(C)C	-1
CCC(CC)NC(=O)C[C@@H](C(=O)NC[C@@H](O)[C@H](Cc1ccccc1)NC(=O)[C@H](CC(N)=O)NC(=O)OCc1ccccc1)C(C)(C)C	1
CC(C)[C@H](NC(=O)OCc1ccccc1)C(=O)N[C@@H](Cc1ccccc1)[C@H](O)CNC(=O)C[C@H](C(=O)NC(C)(C)C)C(C)(C)C	-1
CC(C)[C@H](NC(=O)OCc1ccccc1)C(=O)N[C@@H](Cc1ccccc1)[C@@H](O)CNC(=O)[C@H](CC(=O)NC(C)(C)C)C(C)(C)C	-1
CCCC(CCC)NC(=O)C[C@@H](C(=O)NC[C@@H](O)[C@H](Cc1ccccc1)NC(=O)OCc1ccccc1)C(C)(C)C	-1
CCC(CC)NC(=O)C[C@@H](C(=O)NC[C@@H](O)[C@H](Cc1ccccc1)NC(=O)[C@H](CC(N)=O)NC(=O)c1cnc2ccccc2n1)C(C)(C)C	1
CC(C)[C@H](NC(=O)OCc1ccccc1)C(=O)N[C@@H](Cc1ccccc1)[C@H](O)CNC(=O)C[C@@H](C(=O)NC(C)(C)C)C(C)(C)C	-1
CC(C)(C)NC(=O)C[C@@H](C(=O)NC[C@@H](O)[C@H](Cc1ccccc1)NC(=O)OCc1ccccc1)C(C)(C)C	-1
CCC(CC)NC(=O)C[C@@H](C(=O)NC[C@@H](O)[C@H](Cc1ccccc1)NC(=O)[C@@H](NC(=O)c1cnc2ccccc2n1)C(C)C)C(C)(C)C	1
CC(C)[C@H](NC(=O)OCc1ccccc1)C(=O)N[C@@H](Cc1ccccc1)[C@H](O)CN1CCCC[C@H]1C(=O)NC(C)(C)C	-1
CC(C)[C@H](NC(=O)OCc1ccccc1)C(=O)N[C@@H](Cc1ccccc1)[C@H](O)CNC(=O)CCC(=O)NC(C)(C)C	-1
CC(C)[C@H](NC(=O)OCc1ccccc1)C(=O)N[C@@H](Cc1ccccc1)[C@H](O)CNC(=O)C1CCCC[C@H]1C(=O)NC(C)(C)C (some centres undefined)	-1
CC(C)NC(=O)C[C@@H](C(=O)NC[C@@H](O)[C@H](Cc1ccccc1)NC(=O)OCc1ccccc1)C(C)(C)C	-1
CCC(CC)NC(=O)C[C@@H](C(=O)NC[C@@H](O)[C@H](Cc1ccccc1)NC(=O)[C@@H](NC(=O)c1ccc2ccccc2n1)[C@H](C)O)C(C)(C)C	1
CCC(CC)NC(=O)C[C@@H](C(=O)NC[C@@H](O)[C@H](Cc1ccccc1)NC(=O)[C@H](CC(N)=O)NC(=O)c1ccc2ccccc2n1)C(C)(C)C	1
CCC(CC)NC(=O)C[C@@H](C(=O)NC[C@@H](O)[C@H](Cc1ccccc1)NC(=O)[C@@H](NC(=O)c1ccc2ccccc2n1)C(C)C)C(C)(C)C	1
CCC(CC)NC(=O)C[C@@H](C(=O)NC[C@@H](O)[C@H](Cc1ccccc1)NC(=O)[C@@H](NC(=O)OCc1ccccc1)C(C)C)C(C)(C)C	1
CC(C)C(NC(=O)C[C@@H](C(=O)NC[C@@H](O)[C@H](Cc1ccccc1)NC(=O)OCc1ccccc1)C(C)(C)C)C(C)C	-1
CCC(CC)NC(=O)C[C@@H](C(=O)NC[C@@H](O)[C@H](Cc1ccccc1)NC(=O)[C@@H](NC(=O)c1cnc2ccccc2n1)[C@H](C)O)C(C)(C)C	1
CC(C)(C)[C@@H](CC(=O)NC1CCCCC1)C(=O)NC[C@@H](O)[C@H](Cc1ccccc1)NC(=O)OCc1ccccc1	-1
CC(C)[C@H](NC(=O)OCc1ccccc1)C(=O)N[C@@H](Cc1ccccc1)[C@H](O)CNC(=O)[C@H](CC(=O)NC(C)(C)C)C(C)(C)C	1

====

# Test system: C8166
# PROTOCOL: Inhibitory concentration against HIV-2 rod strain in acutely infected C8166 T cells
# Assay type: functional, cell-based
# ASSAY_CONDITIONS: Homo sapiens
pEC50: −log10 of the molar value.

CHEMICAL_STRUCTURE	pEC50
CC(C)[C@H](NC(=O)c1ccc2ccccc2n1)C(=O)N[C@@H](Cc1ccccc1)[C@H](O)CN1CC[C@@H](OCc2ccncc2)C[C@H]1C(=O)NC(C)(C)C	7.60

====

# SUBJECT_OF_TEST: Human immunodeficiency virus type 1 protease (Human immunodeficiency virus 1, UniProt Q72874)
# PROTOCOL: binding affinity against HIV-1 111B strain in protease
pKi: −log10 of the molar value.
EXPERIMENTAL_ENDPOINT: pKi

CHEMICAL_STRUCTURE	READOUT_NUMBER
CC(C)[C@H](NC(=O)c1ccc2ccccc2n1)C(=O)N[C@@H](Cc1ccccc1)[C@H](O)CN1CC[C@@H](OCc2ccncc2)C[C@H]1C(=O)NC(C)(C)C	10.51

====

# SUBJECT_OF_TEST: Human immunodeficiency virus type 1 protease (Human immunodeficiency virus 1)
# PROTOCOL: Inhibitory concentration against recombinant HIV-1 protease expressed in Escherichia coli was tested by HPLC based assay
EXPERIMENTAL_ENDPOINT: IC50 (nM)

CHEMICAL_STRUCTURE	READOUT_NUMBER
CCC(CC)NC(=O)C[C@@H](C(=O)NC[C@@H](O)[C@H](Cc1ccccc1)NC(=O)[C@@H](NC(=O)OCc1ccccc1)[C@H](C)O)C(C)(C)C	8.2
CCC(CC)NC(=O)C[C@@H](C(=O)NC[C@@H](O)[C@H](Cc1ccccc1)NC(=O)OCc1ccccc1)C(C)(C)C	15
CC(C)(C)[C@@H](CC(=O)Nc1ccccc1)C(=O)NC[C@@H](O)[C@H](Cc1ccccc1)NC(=O)OCc1ccccc1	14
